Procedure Details: Influence on the gastro-intestinal tract (ulceration of the gastric epithelium, pylorus ligated, Shay et al.)
Format: in vivo, rat (Sprague Dawley)
Run Parameters: oral, 1 hour after compound; score 0=no hemorrhage sites to 6=perforated ulcer; control 3.0; dose mg/kg: phenylbutazone 75, ASA 100, TPA 47, pivaloyloxymethyl TPA ester 66, CPA 150, phthalidyl CPA ester 216, pivaloyloxymethyl CPA ester 207, xylyl anthranylates 186/196, TAA 60, its esters 88/84.5
Method: Influence on the gastro-intestinal tract Ten male rats of Sprague Dawley strain, weighing 200-300 g were used for each compound tested. […] The ulceration of the gastric epithelium was evaluated by the following evaluation: 0=no hemorrhage sites; 1=some isolated hemorrhagic sites; 2=redness of the gastric epithelium; 3=1 to 5 small ulcers with a diameter smaller than 3 mm; 4=many small ulcers; 5=ulcers--greater than 3 mm; 6=perforated ulcer.
Endpoint Name: Evaluation (ulceration of the gastric epithelium)
Lab note: record just the number, no unit beside it.

Solved cases below.
{"columns": ["Molecule", "Meas Value"],
 "data": [
  ["Cc1cccc(Nc2ccccc2C(=O)OC2OC(=O)c3ccccc32)c1C (stereo not drawn) [Phthalidyl N-(2',3'-xylyl) anthranylate]", 3.3],
  ["CC(C)(C)C(=O)OCOC(=O)c1ccccc1Nc1cccc(C(F)(F)F)c1", 3.6],
  ["CC(C)(C)C(=O)OCOC(=O)c1cccnc1Nc1cccc(C(F)(F)F)c1", 3.2],
  ["Cc1c(Cl)cccc1Nc1ncccc1C(=O)OCOC(=O)C(C)(C)C", 3.0],
  ["O=C(O)c1cccnc1Nc1cccc(C(F)(F)F)c1 [reference compound]", 3.9]
]}

Given the molecule O=C(O)c1ccccc1Nc1cccc(C(F)(F)F)c1 [N-(3'-trifluorotolyl)-anthranylic acid, reference compound] , write its reported Evaluation (ulceration of the gastric epithelium).
4.9

Please supply the value of reported Evaluation (ulceration of the gastric epithelium) for the item Cc1c(Cl)cccc1Nc1ncccc1C(=O)OC1OC(=O)c2ccccc21 (stereo not drawn)
3.6

Read off the recorded Evaluation (ulceration of the gastric epithelium) for "Cc1cccc(Nc2ccccc2C(=O)OCOC(=O)C(C)(C)C)c1C"
3.4

Please give measured Evaluation (ulceration of the gastric epithelium) of the following entry: O=C(OC1OC(=O)c2ccccc21)c1ccccc1Nc1cccc(C(F)(F)F)c1 (stereo not drawn)
3.5
